test system: HBV rcDNA; experiment: HepDE19 assay with bDNA quantitation of HBV rcDNA; assay type: cell-based, hepatitis B virus; conditions: HepDE19 assay, inhibition of formation of relaxed circular DNA (rcDNA), bDNA quantitation; read-out: DE-19bDNA EC50
# if measured EC50 < 400 nM: Criterion met  # else: Criterion not met

Here's what some known entries look like.
CC(c1c[nH]c(=O)c2c(F)c(F)ccc12)N(C)C(=O)NCc1ccc(F)c(Cl)c1 (single isomer, unassigned) [Compound 496] = Criterion not met
CC(c1c[nH]c(=O)c2cc(F)c(F)cc12)N(C)C(=O)Nc1cc(Cl)c(F)c(Cl)c1 (single isomer, unassigned) [Compound 438] = Criterion not met
CC(c1c[nH]c(=O)c2c(F)cccc12)N(CCCO)C(=O)Nc1ccc(F)c(Cl)c1 (single isomer, unassigned) [Compound 367] = Criterion met
CC(c1c[nH]c(=O)c2cc(F)c(F)cc12)N(C)C(=O)NCc1ccc(F)c(F)c1 (single isomer, unassigned) [Compound 476] = Criterion not met

[ask] Input CC(c1cnc(C#N)c2ccccc12)N(C)C(=O)Nc1ccc(F)c(Cl)c1 (single isomer, unassigned) [Compound 337] ; condition: EC50 strictly below 400 nM. Does it hold?
[reply] Criterion met

[ask] Item CC(c1cnc(CO)c2ccccc12)N(C)C(=O)Nc1ccc(F)c(Cl)c1 (single isomer, unassigned) [Compound 326] : EC50 beneath 400 nM, strictly?
[reply] Criterion not met

[ask] State whether 400 nM exceeds EC50 recorded for CC(c1cnc(OCc2ncn(C)n2)c2cc(F)c(F)cc12)N(C)C(=O)Nc1ccc(F)c(Cl)c1 (single isomer, unassigned) [Compound 346] .
[reply] Criterion not met

[ask] # check: EC50 < 400 nM for CC(c1c[nH]c(=O)c2cc(F)c(F)cc12)N(C)C(=O)Nc1ccc2cc[nH]c2c1 (single isomer, unassigned) [Compound 485]
[reply] Criterion not met

* * *

tested on: HBV rcDNA; test: HepDE19 assay with bDNA quantitation of HBV rcDNA; type: cell-based, hepatitis B virus; details: HepDE19 assay, inhibition of formation of relaxed circular DNA (rcDNA), bDNA quantitation; read-out: DE-19bDNA EC50
What log10 of EC50 was measured for each of the following?
The figures below represent log10 of EC50, where EC50 is stated in µM.

Below: 5 compounds and their reported log10 of EC50.
CC(c1cnc(S(C)(=O)=O)c2ccccc12)N(C)C(=O)Nc1ccc(F)c(Cl)c1 (single isomer, unassigned) [Compound 315] = -0.10
CC(c1c[nH]c(=O)c2ccccc12)N(Cc1ccccn1)C(=O)Nc1ccc(F)c(Cl)c1 (single isomer, unassigned) [Compound 304] = 0.98
CC(c1cnc(C(=O)N(C)C)c2ccccc12)N(C)C(=O)Nc1ccc(F)c(Cl)c1 (single isomer, unassigned) [Compound 318] = 1.38
CC(c1c[nH]c(=O)c2cc(F)c(F)cc12)N(CCCO)C(=O)Nc1ccc(F)cc1 (single isomer, unassigned) [Compound 292] = -2.00
CC(c1c[nH]c(=O)c2c(F)c(F)ccc12)N(C)C(=O)Nc1ccc(F)cc1 (single isomer, unassigned) [Compound 433] = -1.15

Now turn to the next compound.
Readout log10 of EC50 for CC(c1c[nH]c(=O)c2ccccc12)N(Cc1cccnc1)C(=O)Nc1ccc(F)c(Cl)c1 (single isomer, unassigned) [Compound 307] , test system HBV rcDNA, was 1.30

* * *

Tested on: HBV rcDNA
Assay: HepDE19 assay with bDNA quantitation of HBV rcDNA
Format: cell-based, hepatitis B virus
Settings: HepDE19 assay, inhibition of formation of relaxed circular DNA (rcDNA), bDNA quantitation; read-out: DE-19bDNA EC50
From the text: HepDE19 Assay with bDNA Quantitation of HBV rcDNA: HepDE19 cell culture system is a HepG2 (human hepatocarcinoma) derived cell line that supports HBV DNA replication and cccDNA formation in a tetracycline (Tet)-regulated manner and produces HBV rcDNA and a detectable reporter molecule dependent on the production and maintenance of cccDNA (Guo, et al., 2007, J. Virol. 81:12472-12484). […]
Provide the recorded EC50 for the entries that follow.
Numbers only, in nM.

CC(c1c[nH]c(=O)c2ccccc12)N(Cc1ccncn1)C(=O)Nc1ccc(F)c(Cl)c1 (single isomer, unassigned) [Compound 321] = 19000
CC(c1c[nH]c(=O)c2cc(F)c(F)cc12)N(C)C(=O)NCc1ccc(F)c(Cl)c1 (single isomer, unassigned) [Compound 483] = 270
CC(c1c[nH]c(=O)c2c(F)c(F)ccc12)N(C)C(=O)NCc1cc(F)c(F)c(F)c1 (single isomer, unassigned) [Compound 493] = 15000
CC(c1c[nH]c(=O)c2cc(F)c(F)cc12)N(CCCO)C(=O)Nc1ccc(F)c(Cl)c1 (single isomer, unassigned) [Compound 290] = 2
CC(c1c[nH]c(=O)c2cc(F)c(F)cc12)N(C)C(=O)Nc1cc(Cl)c(F)c(Cl)c1 (single isomer, unassigned) [Compound 439] = 120
CC(c1cnc(OCc2ncn(C)n2)c2cc(F)c(F)cc12)N(C)C(=O)Nc1ccc(F)c(Cl)c1 (single isomer, unassigned) [Compound 347] = 7

Report EC50 for each item below.
1. Cc1cc(NC(=O)N(C)C(C)c2c[nH]c(=O)c3cc(F)c(F)cc23)ccc1F (single isomer, unassigned) [Compound 426]
2. CC(C)CN(C(=O)Nc1ccc(F)c(Cl)c1)C(C)c1c[nH]c(=O)c2c(F)c(F)ccc12 (single isomer, unassigned) [Compound 338]
3. CCN(C(=O)Nc1ccc(F)c(Cl)c1)C(C)c1c[nH]c(=O)c2c(F)c(F)ccc12 (single isomer, unassigned) [Compound 468]
4. CC(c1c[nH]c(=O)c2c(F)c(F)ccc12)N(C)C(=O)NCc1ccc(F)c(F)c1 (single isomer, unassigned) [Compound 489]
5. CC(C)CN(C(=O)Nc1ccc(F)cc1)C(C)c1c[nH]c(=O)c2c(F)cc(F)cc12 (single isomer, unassigned) [Compound 376]
6. CC(c1c[nH]c(=O)c2cc(F)c(F)cc12)N(C)C(=O)NCc1ccc(F)c(F)c1 (single isomer, unassigned) [Compound 477]
7. CC(c1c[nH]c(=O)c2ccccc12)N(Cc1cscn1)C(=O)Nc1ccc(F)c(Cl)c1 (single isomer, unassigned) [Compound 313]

[reply]
[110, 800, 1100, 19000, 7, 10000, 400]

// for each compound in input: emit EC50
1. CC(c1c[nH]c(=O)c2cc(F)c(F)cc12)N(C)C(=O)Nc1ccc(F)c(C(F)F)c1 (single isomer, unassigned) [Compound 502]
2. CC(c1c[nH]c(=O)c2cc(F)c(F)cc12)N(C)C(=O)Nc1cccc(F)c1F (single isomer, unassigned) [Compound 430]
3. CCN(C(=O)Nc1ccc(F)c(Cl)c1)C(C)c1c[nH]c(=O)c2cc(F)c(F)cc12 (single isomer, unassigned) [Compound 407]
4. CC(c1c[nH]c(=O)c2cc(F)ccc12)N(CCS(N)(=O)=O)C(=O)Nc1ccc(F)c(Cl)c1 (single isomer, unassigned) [Compound 384]

[reply]
1. 17
2. 12000
3. 6
4. 10

For CCN(C(=O)Nc1ccc(F)cc1)C(C)c1c[nH]c(=O)c2cc(F)c(F)cc12 (single isomer, unassigned) [Compound 402] on HBV rcDNA, measured EC50 was 10000

* * *

system: HBV rcDNA; experiment: HepDE19 assay with bDNA quantitation of HBV rcDNA; assay type: cell-based, hepatitis B virus; conditions: HepDE19 assay, inhibition of formation of relaxed circular DNA (rcDNA), bDNA quantitation; read-out: DE-19bDNA EC50
measurement.kind: EC50 (nM)
One number for each entry, in nM.

Worked examples, 6 compounds total:
CC(c1c[nH]c(=O)c2ccccc12)N(Cc1nccs1)C(=O)Nc1ccc(F)c(Cl)c1 (single isomer, unassigned) [Compound 310] = 5500
CCN(C(=O)Nc1ccc(F)c(Cl)c1)C(C)c1c[nH]c(=O)c2c(F)c(F)ccc12 (single isomer, unassigned) [Compound 469] = 5
CC(c1c[nH]c(=O)c2c(F)c(F)ccc12)N(C)C(=O)Nc1ccc(F)c(F)c1 (single isomer, unassigned) [Compound 434] = 3200
CC(C)CN(C(=O)Nc1ccc(F)cc1)C(C)c1c[nH]c(=O)c2cc(F)c(F)cc12 (single isomer, unassigned) [Compound 288] = 4
CC(c1c[nH]c(=O)c2c(F)c(F)ccc12)N(C)C(=O)Nc1cc(F)c(F)c(F)c1 (single isomer, unassigned) [Compound 442] = 4700
CC(c1c[nH]c(=O)c2c(F)c(F)ccc12)N(C)C(=O)Nc1ccc(F)cc1 (single isomer, unassigned) [Compound 432] = 11200

Could you tell me EC50 for each of these compounds? They are listed below.
1. CC(c1c[nH]c(=O)c2cc(F)c(F)cc12)N(CCCO)C(=O)Nc1ccc(F)cc1 (single isomer, unassigned) [Compound 291]
2. CC(c1c[nH]c(=O)c2cc(F)ccc12)N(CCS(N)(=O)=O)C(=O)Nc1ccc(F)c(Cl)c1 (single isomer, unassigned) [Compound 383]
3. CC(c1c[nH]c(=O)c2cc(F)c(F)cc12)N(C)C(=O)Nc1cc(F)c(F)c(F)c1 (single isomer, unassigned) [Compound 415]
4. CCN(C(=O)Nc1ccc(F)cc1)C(C)c1c[nH]c(=O)c2c(F)c(F)ccc12 (single isomer, unassigned) [Compound 464]

[reply]
1: 4600; 2: 7000; 3: 21; 4: 2900
